tested on: waterhemp (common waterhemp, Amaranthus rudis); test: Test C preemergence; type: in vivo; conditions: 250 g ai/ha, scale 0 to 100, 0 no effect, 100 complete control
observable: Plant response rating, Waterhemp
I'd appreciate a reply containing only the number, no unit.

molecule="CN1CC(c2cccc(OC(F)F)c2)C(C(=O)Nc2cccc(F)c2F)C1=O (stereo not drawn)" observable="Plant response rating, Waterhemp" reported_measurement=85
molecule="CN1CC(c2cccc(OC(F)(F)C(F)F)c2)C(C(=O)Nc2ccccc2C(F)(F)F)C1=O (stereo not drawn)" observable="Plant response rating, Waterhemp" reported_measurement=90
molecule="CN1CC(c2cccc(OC(F)(F)C(F)F)c2)C(C(=O)Nc2ccc(F)c(F)c2F)C1=O (stereo not drawn)" observable="Plant response rating, Waterhemp" reported_measurement=90

// returns reported Plant response rating, Waterhemp for input O=C1NCC(c2cccc(OC(F)(F)C(F)F)c2)C1C(=O)Nc1cccc(F)c1F (racemic)
85

// returns reported Plant response rating, Waterhemp for input CN1CC(c2cc(F)cc(F)c2)C(C(=O)Nc2ccc(F)c(F)c2F)C1=O (stereo not drawn)
85

// returns reported Plant response rating, Waterhemp for input O=C1NCC(c2ccc3c(c2)OC(F)(F)O3)C1C(=O)Nc1cccc(F)c1F (stereo not drawn)
85
